Test system: Escherichia coli TOP10
Procedure summary: shrunken log2 fold change of peptide-encoding DNA abundance (4.5 h post-induction vs induction); higher = less antimicrobial activity (less host growth inhibition)
Condition context: time post-induction: 4.5 h; library: site-saturation at positions 5, 18, 19, 20
List of shrunken log2 fold change values.

Worked cases, answers included:
Name the value of shrunken log2 fold change reported for RRIRHRPPRLPRPRPRPIHQPRP when tested on Escherichia coli TOP10.
-0.441

Name the value of shrunken log2 fold change reported for RRIRLRPPRLPRPRPRPFYFPRP when tested on Escherichia coli TOP10.
-0.432

Name the value of shrunken log2 fold change reported for RRIRMRPPRLPRPRPRPDIHPRP when tested on Escherichia coli TOP10.
0.335

Name the value of shrunken log2 fold change reported for RRIRLRPPRLPRPRPRPETTPRP when tested on Escherichia coli TOP10.
0.182

Name the value of shrunken log2 fold change reported for RRIRARPPRLPRPRPRPAIMPRP when tested on Escherichia coli TOP10.
0.161

Name the value of shrunken log2 fold change reported for RRIRIRPPRLPRPRPRPIMDPRP when tested on Escherichia coli TOP10.
-0.364

Name the value of shrunken log2 fold change reported for RRIRERPPRLPRPRPRPSIEPRP when tested on Escherichia coli TOP10.
-0.37

Name the value of shrunken log2 fold change reported for RRIRQRPPRLPRPRPRPAMPPRP when tested on Escherichia coli TOP10.
0.306

Others:
Name the value of shrunken log2 fold change reported for RRIRTRPPRLPRPRPRPWVNPRP when tested on Escherichia coli TOP10.
-0.208

Name the value of shrunken log2 fold change reported for RRIRLRPPRLPRPRPRPYADPRP when tested on Escherichia coli TOP10.
-0.135

Name the value of shrunken log2 fold change reported for RRIRQRPPRLPRPRPRPFVAPRP when tested on Escherichia coli TOP10.
0.0106

Name the value of shrunken log2 fold change reported for RRIRYRPPRLPRPRPRPRCLPRP when tested on Escherichia coli TOP10.
-0.0564

Name the value of shrunken log2 fold change reported for RRIRHRPPRLPRPRPRPRFGPRP when tested on Escherichia coli TOP10.
0.0573

Name the value of shrunken log2 fold change reported for RRIRLRPPRLPRPRPRPQTSPRP when tested on Escherichia coli TOP10.
-0.106

Name the value of shrunken log2 fold change reported for RRIRTRPPRLPRPRPRPCAFPRP when tested on Escherichia coli TOP10.
-0.0344

====

Tested on: Escherichia coli TOP10;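 note: peptides expressed intracellularly from a pBAD plasmid library in pooled LB shake-flask culture, induced with 0.3% L-arabinose, DNA abundance read by NGS, three biological replicates, DESeq2 with apeglm shrinkage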
Procedure summary: shrunken log2 fold change of peptide-encoding DNA abundance (4.5 h post-induction vs induction); higher = less antimicrobial activity (less host growth inhibition)
Condition context: time post-induction: 4.5 h; library: site-saturation at positions 5, 18, 19, 20
Each entry falls into one class according to its shrunken log2 fold change; the ranges are Low: < -0.02; Mid: ≥ -0.02 and < 0.4; High: ≥ 0.4

Known results for sequences:
Any idea which band RRIRTRPPRLPRPRPRPAHVPRP is in?
Mid

Any idea which band RRIRPRPPRLPRPRPRPCHPPRP is in?
Low

Any idea which band RRIRGRPPRLPRPRPRPVTGPRP is in?
Mid

Any idea which band RRIRSRPPRLPRPRPRPHCPPRP is in?
Mid

Any idea which band RRIRCRPPRLPRPRPRPKKVPRP is in?
Mid

Any idea which band RRIRRRPPRLPRPRPRPMHCPRP is in?
High

Others:
Any idea which band RRIRIRPPRLPRPRPRPANEPRP is in?
Mid

Any idea which band RRIRLRPPRLPRPRPRPWPWPRP is in?
Mid
